biological target: Hypoxia-inducible factor 1-alpha (Homo sapiens); experiment: ATG_HIF1a_CIS: Attagene CIS-FACTORIAL HepG2 Assay for human Hypoxia Inducible Factor 1 (HIF1A) (AID 2282951); settings: HepG2 Attagene cis-factorial HIF1a reporter transcription; actives raise or lower the signal
Activity calls are given as the source filed them. Rule for the calls: active = hit-call score of the fitted dose curve at least 0.9, where 1 is the maximum; inactive = score below 0.9.

COMPOUND: FC(F)(F)C(F)(F)C(F)(F)C(F)(F)C(F)(F)C(F)(F)CCI
STUDY_SYSTEM: Hypoxia-inducible factor 1-alpha (Homo sapiens)
AC50: inactive
//
COMPOUND: CC(CO)OC(C)CO (stereo not drawn) (tested in a mixture with another compound)
STUDY_SYSTEM: Hypoxia-inducible factor 1-alpha (Homo sapiens)
AC50: 4.72 µM (active)
//
COMPOUND: Oc1ccc2c(c1)OC[C@@H](N1CCC(O)(c3ccc(F)cc3)CC1)[C@H]2O
STUDY_SYSTEM: Hypoxia-inducible factor 1-alpha (Homo sapiens)
AC50: inactive
//
COMPOUND: Cc1ccc2ncccc2c1
STUDY_SYSTEM: Hypoxia-inducible factor 1-alpha (Homo sapiens)
AC50: inactive
//
COMPOUND: Cc1ccc(Cl)cc1
STUDY_SYSTEM: Hypoxia-inducible factor 1-alpha (Homo sapiens)
AC50: 57.2 µM (active)
//
COMPOUND: CCCCCCCCCCCCCCCC
STUDY_SYSTEM: Hypoxia-inducible factor 1-alpha (Homo sapiens)
AC50: inactive
//
COMPOUND: CCc1c(C(=O)NN2CCCCC2)nn(-c2ccc(Cl)cc2Cl)c1-c1ccc(Br)cc1
STUDY_SYSTEM: Hypoxia-inducible factor 1-alpha (Homo sapiens)
AC50: 0.387 µM (active)
//
COMPOUND: CCCCCC(=O)O
STUDY_SYSTEM: Hypoxia-inducible factor 1-alpha (Homo sapiens)
AC50: inactive
//
COMPOUND: COc1cc(C=O)ccc1O
STUDY_SYSTEM: Hypoxia-inducible factor 1-alpha (Homo sapiens)
AC50: inactive
//
COMPOUND: COc1cc(S(=O)(=O)O)c(C)cc1N=Nc1c(O)ccc2cc(S(=O)(=O)O)ccc12
STUDY_SYSTEM: Hypoxia-inducible factor 1-alpha (Homo sapiens)
AC50: 5.78 µM (active)
//
COMPOUND: COCCOC[C@H](CC1(C(=O)NC2CCC(C(=O)O)CC2)CCCC1)C(=O)Oc1ccc2c(c1)CCC2 (stereo partly drawn)
STUDY_SYSTEM: Hypoxia-inducible factor 1-alpha (Homo sapiens)
AC50: inactive
//
COMPOUND: Cc1oc(-c2ccccc2)nc1CCOc1cccc2c1ccn2CCC(=O)O
STUDY_SYSTEM: Hypoxia-inducible factor 1-alpha (Homo sapiens)
AC50: inactive
//
COMPOUND: CCCCOC(=O)CCCCCCCCC(=O)OCCCC
STUDY_SYSTEM: Hypoxia-inducible factor 1-alpha (Homo sapiens)
AC50: inactive
//
COMPOUND: COc1ccc2c(c1)c(CC(=O)O)c(C)n2C(=O)c1ccc(Cl)cc1
STUDY_SYSTEM: Hypoxia-inducible factor 1-alpha (Homo sapiens)
AC50: inactive
//
COMPOUND: OC[C@@H](O)[C@@H](O)[C@H](O)[C@H](O)CO
STUDY_SYSTEM: Hypoxia-inducible factor 1-alpha (Homo sapiens)
AC50: inactive
//
COMPOUND: O=[N+]([O-])C(CO)(CO)CO
STUDY_SYSTEM: Hypoxia-inducible factor 1-alpha (Homo sapiens)
AC50: inactive
//
COMPOUND: Cc1ccc(C)c(O)c1C
STUDY_SYSTEM: Hypoxia-inducible factor 1-alpha (Homo sapiens)
AC50: inactive
//
COMPOUND: Cc1cc(NC(=O)C(=O)O)cc(C)c1Oc1ccc(O)c2c1CCC2
STUDY_SYSTEM: Hypoxia-inducible factor 1-alpha (Homo sapiens)
AC50: inactive
//
COMPOUND: Cc1cc(=O)[nH]c(=S)[nH]1
STUDY_SYSTEM: Hypoxia-inducible factor 1-alpha (Homo sapiens)
AC50: inactive
//
COMPOUND: O=C(O)CCCCC(=O)O
STUDY_SYSTEM: Hypoxia-inducible factor 1-alpha (Homo sapiens)
AC50: inactive
//
COMPOUND: CNC(=O)[C@H]1O[C@@H](n2cnc3c(NCc4cc(Cl)ccc4OCc4cc(C)no4)ncnc32)[C@H](O)[C@@H]1N
STUDY_SYSTEM: Hypoxia-inducible factor 1-alpha (Homo sapiens)
AC50: inactive
//
COMPOUND: CC1=C(/C=C/C(C)=C/C=C/C(C)=C/CO)C(C)(C)CCC1
STUDY_SYSTEM: Hypoxia-inducible factor 1-alpha (Homo sapiens)
AC50: inactive
//
COMPOUND: NC(=O)Cn1c(=O)cc(CCN2CCN(c3nccc4sccc34)CC2)c2ccc(F)cc21
STUDY_SYSTEM: Hypoxia-inducible factor 1-alpha (Homo sapiens)
AC50: 61.4 µM (active)
//
COMPOUND: Nc1ccc2c(c1)C(=O)c1ccccc1C2=O
STUDY_SYSTEM: Hypoxia-inducible factor 1-alpha (Homo sapiens)
AC50: inactive
//
COMPOUND: CN1CCCC1=O
STUDY_SYSTEM: Hypoxia-inducible factor 1-alpha (Homo sapiens)
AC50: inactive
//
COMPOUND: NCCO
STUDY_SYSTEM: Hypoxia-inducible factor 1-alpha (Homo sapiens)
AC50: inactive
//
COMPOUND: Nc1ccccc1N
STUDY_SYSTEM: Hypoxia-inducible factor 1-alpha (Homo sapiens)
AC50: 41.3 µM (active)
//
COMPOUND: CC(=O)OC/C=C(\C)CCC=C(C)C
STUDY_SYSTEM: Hypoxia-inducible factor 1-alpha (Homo sapiens)
AC50: inactive
//
COMPOUND: Cc1nc(-c2ccc3c(c2)CCN(CCC2CCC(NC(=O)/C=C/c4ccc(F)cc4)CC2)CC3)no1 (stereo not drawn)
STUDY_SYSTEM: Hypoxia-inducible factor 1-alpha (Homo sapiens)
AC50: inactive
//
COMPOUND: CCNc1cccc(C)c1
STUDY_SYSTEM: Hypoxia-inducible factor 1-alpha (Homo sapiens)
AC50: 60.8 µM (active)
//
COMPOUND: C=CCOC(=O)c1ccccc1C(=O)OCC=C
STUDY_SYSTEM: Hypoxia-inducible factor 1-alpha (Homo sapiens)
AC50: inactive
//
COMPOUND: Clc1cc(Cl)c(Cl)cc1Cl
STUDY_SYSTEM: Hypoxia-inducible factor 1-alpha (Homo sapiens)
AC50: inactive
//
COMPOUND: CCCCCCOCCO
STUDY_SYSTEM: Hypoxia-inducible factor 1-alpha (Homo sapiens)
AC50: inactive
//
COMPOUND: C[Si]1(C)O[Si](C)(C)O[Si](C)(C)O[Si](C)(C)O1
STUDY_SYSTEM: Hypoxia-inducible factor 1-alpha (Homo sapiens)
AC50: inactive
//
COMPOUND: Cc1cccc([N+](=O)[O-])c1C
STUDY_SYSTEM: Hypoxia-inducible factor 1-alpha (Homo sapiens)
AC50: inactive
//
COMPOUND: NCC1(Cc2noc(=O)[nH]2)CCCCC1
STUDY_SYSTEM: Hypoxia-inducible factor 1-alpha (Homo sapiens)
AC50: inactive
//
COMPOUND: Cc1nc(C)nc(N2C[C@@H](C)N(c3ccnc([C@@H](C)O)n3)[C@@H](C)C2)n1
STUDY_SYSTEM: Hypoxia-inducible factor 1-alpha (Homo sapiens)
AC50: inactive
//
COMPOUND: COc1ccc(C)cc1N
STUDY_SYSTEM: Hypoxia-inducible factor 1-alpha (Homo sapiens)
AC50: inactive
//
COMPOUND: Cc1ccc(C(C)C)c(O)c1
STUDY_SYSTEM: Hypoxia-inducible factor 1-alpha (Homo sapiens)
AC50: inactive
//
COMPOUND: CCCCCCCCCCCC(=O)OC
STUDY_SYSTEM: Hypoxia-inducible factor 1-alpha (Homo sapiens)
AC50: inactive
//
COMPOUND: CCOC(=O)CCC(=O)OCC
STUDY_SYSTEM: Hypoxia-inducible factor 1-alpha (Homo sapiens)
AC50: inactive
//
COMPOUND: Cc1ccccc1Cl
STUDY_SYSTEM: Hypoxia-inducible factor 1-alpha (Homo sapiens)
AC50: inactive
//
COMPOUND: COc1cc(/C=C/C(=O)CC(=O)/C=C/c2ccc(O)c(OC)c2)ccc1O
STUDY_SYSTEM: Hypoxia-inducible factor 1-alpha (Homo sapiens)
AC50: inactive

###

assay: TOX21_p53_BLA_p5_viability: Viability Assessment in the Tox21 HCT-116 p53 Agonism Beta-lactamase Assay, Phase 5 (AID 2283600)
Inconclusive results are not listed. Calls of active or inactive are those of the source. How the source made its calls: active means hit-call score of the fitted dose curve at least 0.9, where 1 is the maximum; inconclusive means response in the unintended direction; inactive means score below 0.9.
Outcomes: y (active), n (inactive)

MOLECULE: CC(=O)Oc1ccccc1C(=O)O
CATEGORY_LABEL: n

MOLECULE: CCCCCCCCCCCCCO
CATEGORY_LABEL: n

MOLECULE: Nc1nc(N)c2nc(CNc3ccc(C(=O)N[C@@H](CCC(=O)O)C(=O)O)cc3)cnc2n1
CATEGORY_LABEL: y

MOLECULE: Cc1c(C(=O)O)c(O)cc2c1C(=O)c1c(O)c([C@@H]3O[C@H](CO)[C@@H](O)[C@H](O)[C@H]3O)c(O)c(O)c1C2=O
CATEGORY_LABEL: n

MOLECULE: CNC(=O)[C@H]1O[C@@H](n2cnc3c(NCc4cc(Cl)ccc4OCc4cc(C)no4)ncnc32)[C@H](O)[C@@H]1N
CATEGORY_LABEL: n

MOLECULE: C=CCc1ccc(O)c(OC)c1
CATEGORY_LABEL: n

MOLECULE: Cc1ccccc1Cl
CATEGORY_LABEL: n

MOLECULE: CCOC(=O)CCC(=O)OCC
CATEGORY_LABEL: n

MOLECULE: O=C(OCCCCCOC(=O)c1ccccc1)c1ccccc1
CATEGORY_LABEL: n

MOLECULE: CCOC(=O)C(C)(C)Oc1ccc(Cl)cc1
CATEGORY_LABEL: n

MOLECULE: CCCc1cc(=O)[nH]c(=S)[nH]1
CATEGORY_LABEL: n

MOLECULE: CCCCCCCC=O
CATEGORY_LABEL: n

MOLECULE: COc1cc(-c2nc(NC(=O)c3cc4cc(C)cc(C)c4n3CC(=O)O)sc2CCC2CCCCC2)c(OC)cc1Cl
CATEGORY_LABEL: y

MOLECULE: Cc1nc(-c2ccc3c(c2)CCN(CCC2CCC(NC(=O)/C=C/c4ccc(F)cc4)CC2)CC3)no1 (stereo unspecified)
CATEGORY_LABEL: n

MOLECULE: O=[N+]([O-])C(CO)(CO)CO
CATEGORY_LABEL: n

MOLECULE: CCNc1cccc(C)c1
CATEGORY_LABEL: n

MOLECULE: C1CCC(SSC2CCCCC2)CC1
CATEGORY_LABEL: n

MOLECULE: Cc1cc(=O)[nH]c(=S)[nH]1
CATEGORY_LABEL: n

MOLECULE: Cc1cccc([N+](=O)[O-])c1C
CATEGORY_LABEL: n

MOLECULE: NS(=O)(=O)c1cc2c(cc1Cl)NCNS2(=O)=O
CATEGORY_LABEL: n

MOLECULE: CN[C@H]1CC[C@@H](c2ccc(Cl)c(Cl)c2)c2ccc(S(N)(=O)=O)cc21
CATEGORY_LABEL: y

MOLECULE: Cc1cccc(C)c1O
CATEGORY_LABEL: n

MOLECULE: CCCCCCCCCCCC(=O)OC
CATEGORY_LABEL: n

MOLECULE: Cc1nc(C)nc(N2C[C@@H](C)N(c3ccnc([C@@H](C)O)n3)[C@@H](C)C2)n1
CATEGORY_LABEL: n

MOLECULE: COc1cc(C=O)ccc1O
CATEGORY_LABEL: n

MOLECULE: CC(C)c1ccc(C(=O)N=C(N)N)cc1S(C)(=O)=O
CATEGORY_LABEL: n
